All figures here come from the supplement of paper PMC7877785.

- Method: self-splicing fitness, log relative to wild type (ln ratio); higher = more splicing; Tetrahymena group I intron in knt gene, E. coli kanamycin selection, DiMSum; sequences stand for … in CUCUCU…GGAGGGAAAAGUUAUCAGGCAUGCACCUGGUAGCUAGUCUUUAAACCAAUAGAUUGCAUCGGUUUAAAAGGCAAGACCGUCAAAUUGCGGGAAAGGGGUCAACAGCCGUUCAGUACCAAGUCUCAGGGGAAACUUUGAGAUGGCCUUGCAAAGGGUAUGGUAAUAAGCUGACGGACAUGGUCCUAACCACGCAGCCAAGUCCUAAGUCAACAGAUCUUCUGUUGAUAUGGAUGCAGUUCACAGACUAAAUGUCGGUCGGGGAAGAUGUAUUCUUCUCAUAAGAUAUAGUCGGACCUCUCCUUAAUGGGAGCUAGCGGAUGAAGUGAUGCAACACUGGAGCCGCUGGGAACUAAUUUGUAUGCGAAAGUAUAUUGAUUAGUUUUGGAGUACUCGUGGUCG;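 also: selection with 25 µg/mL kanamycin versus none on LB agar overnight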
- Experimental Conditions: 37 °C
# if value of self-splicing fitness (ln) reaches -1, tag 1 (yes); if it stays below, tag 0 (no)

# Query Sequence, Group
records = [
    ("AGAAAGCAAUAUUACGAGGA", "0 (no)"),
]

(Q) Is reported self-splicing fitness (ln) greater than or equal to -1 here: `CGAUAGCAAUAUUACGAAGC`
(A) 0 (no)

(Q) Now the same for `GCUUAGCAAUAUUACGGAAC`
(A) 1 (yes)

(Q) Now the same for `UGACAGCAAUAUUACGUGUG`
(A) 1 (yes)

====

- Method: self-splicing fitness, log relative to wild type (ln ratio); higher = more splicing; Tetrahymena group I intron in knt gene, E. coli kanamycin selection, DiMSum; sequences stand for … in CUCUCU…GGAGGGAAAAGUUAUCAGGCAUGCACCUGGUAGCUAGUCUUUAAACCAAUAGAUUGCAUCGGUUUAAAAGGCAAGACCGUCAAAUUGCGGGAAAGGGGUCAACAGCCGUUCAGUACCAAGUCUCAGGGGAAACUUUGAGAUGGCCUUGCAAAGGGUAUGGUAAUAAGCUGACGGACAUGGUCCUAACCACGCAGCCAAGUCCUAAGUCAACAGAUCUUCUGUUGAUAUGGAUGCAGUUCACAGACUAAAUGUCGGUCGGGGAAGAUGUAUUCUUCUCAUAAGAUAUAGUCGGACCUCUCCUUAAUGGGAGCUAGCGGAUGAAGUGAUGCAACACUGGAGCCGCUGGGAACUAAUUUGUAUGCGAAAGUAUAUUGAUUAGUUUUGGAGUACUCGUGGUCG
- Experimental Conditions: 37 °C
This section presents sequences with their documented self-splicing fitness (ln) values.
In your answer, state the number alone without any accompanying words.

(Q) # lookup: self-splicing fitness (ln) of `AACUAGCAAUAUUACGCUGG`
(A) -2.34

(Q) Now the same for `UGCCAGCAAUAUUACGGAGU`
(A) -1.34

(Q) Now the same for `CGCAAGCAAUAUUACGAGCA`
(A) 0.368

(Q) Now the same for `AAUAAGCAAUAUUACGGAUC`
(A) -0.124

(Q) Now the same for `CACGAGCAAUAUUACGCGUC`
(A) -1.52

(Q) Now the same for `GUGAAGCAAUAUUACGCAAC`
(A) -2.08

(Q) Now the same for `UGAAAGCAAUAUUACGUAAG`
(A) -0.0639

(Q) Now the same for `GCCAAGCAAUAUUACGUUGC`
(A) -0.915
